Biological target: Tryptophan 2,3-dioxygenase (Homo sapiens, UniProt P48775)
Sequence (P48775 whole entry): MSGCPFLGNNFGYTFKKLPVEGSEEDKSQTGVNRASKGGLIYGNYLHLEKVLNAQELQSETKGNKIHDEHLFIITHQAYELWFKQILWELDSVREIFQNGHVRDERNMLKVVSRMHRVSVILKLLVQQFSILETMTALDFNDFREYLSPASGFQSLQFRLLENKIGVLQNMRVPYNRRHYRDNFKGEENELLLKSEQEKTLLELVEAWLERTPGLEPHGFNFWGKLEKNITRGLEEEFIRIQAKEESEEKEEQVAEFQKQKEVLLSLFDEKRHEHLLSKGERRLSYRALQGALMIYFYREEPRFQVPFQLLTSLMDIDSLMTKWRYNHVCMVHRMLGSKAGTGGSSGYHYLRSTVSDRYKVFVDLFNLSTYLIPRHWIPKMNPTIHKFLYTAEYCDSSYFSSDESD
Assay: Uncompetitive inhibition of recombinant human TDO expressed in Escherichia coli BL21 (DE3) assessed as assessed as inhibition constant using varying concentration of L-tryptophan as substrate by Dixon plot analysis
pKi: −log10 of the molar value.
Entries annotated with measured pKi
OUTCOME_MEASURE: pKi

[[record]]
chemical_smiles = "CN(C)c1ccc2nc3n(c(=O)c2c1)-c1ccc(F)cc1C3=O"
outcome_measure = "pKi"
result_value = 5.91

[[record]]
chemical_smiles = "O=C1c2cc(F)ccc2-n2c1nc1ccc(CN3CCNCC3)cc1c2=O"
outcome_measure = "pKi"
result_value = 6.92

[[record]]
chemical_smiles = "CN1CCN(Cc2ccc3nc4n(c(=O)c3c2)-c2ccc(F)cc2C4=O)CC1"
outcome_measure = "pKi"
result_value = 6.51

[[record]]
chemical_smiles = "CN1CCN(c2ccc3nc4n(c(=O)c3c2)-c2ccccc2C4=O)CC1"
outcome_measure = "pKi"
result_value = 4.75

[[record]]
chemical_smiles = "O=C1c2cc(F)ccc2-n2c1nc1ccc(N3CCOCC3)cc1c2=O"
outcome_measure = "pKi"
result_value = 5.63

[[record]]
chemical_smiles = "O=C1c2cc(F)ccc2-n2c1nc1ccc(N3CCCCC3)cc1c2=O"
outcome_measure = "pKi"
result_value = 5.81

[[record]]
chemical_smiles = "O=C1c2cc(F)ccc2-n2c1nc1ccc(CN3CCOCC3)cc1c2=O"
outcome_measure = "pKi"
result_value = 6.47


---

Entries annotated with measured pKi
Target: Indoleamine 2,3-dioxygenase 2 (Homo sapiens, UniProt Q6ZQW0)
Sequence (Q6ZQW0 whole entry, the tested form may be a part): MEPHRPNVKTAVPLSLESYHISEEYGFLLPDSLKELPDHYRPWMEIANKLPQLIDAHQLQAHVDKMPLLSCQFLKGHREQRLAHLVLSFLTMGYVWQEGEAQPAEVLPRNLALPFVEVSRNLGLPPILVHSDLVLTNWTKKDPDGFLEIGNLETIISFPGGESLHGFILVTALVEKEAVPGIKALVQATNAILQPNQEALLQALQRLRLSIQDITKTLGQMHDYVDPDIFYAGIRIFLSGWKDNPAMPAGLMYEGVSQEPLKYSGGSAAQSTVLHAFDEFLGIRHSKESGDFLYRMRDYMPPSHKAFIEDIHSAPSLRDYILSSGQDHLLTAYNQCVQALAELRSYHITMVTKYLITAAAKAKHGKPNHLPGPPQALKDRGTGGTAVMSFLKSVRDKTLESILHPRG
Assay: Noncompetitive inhibition of C-terminal His6-tagged human IDO2 (14 to 420 residues) expressed in Escherichia coli BL21 (DE3) assessed as inhibition constant using varying concentration of L-tryptophan as substrate by Dixon plot analysis
pKi: −log10 of the molar value.
OUTCOME_MEASURE: pKi

[[record]]
chemical_smiles = "CN(C)c1ccc2nc3n(c(=O)c2c1)-c1ccc(F)cc1C3=O"
result_value = 4.34

[[record]]
chemical_smiles = "CN1CCN(c2ccc3nc4n(c(=O)c3c2)-c2ccc(F)cc2C4=O)CC1"
result_value = 4.70


---

Entries annotated with measured Ki
Molecular target: UniProt:Q6ZQW0
Assay: Uncompetitive inhibition of C-terminal His6-tagged human IDO2 (14 to 420 residues) expressed in Escherichia coli BL21 (DE3) assessed as inhibition constant using varying concentration of L-tryptophan as substrate by Dixon plot analysis
OUTCOME_MEASURE: Ki (µM)

[[record]]
chemical_smiles = "O=C1c2cc(F)ccc2-n2c1nc1ccc(N3CCOCC3)cc1c2=O"
result_value = 39.1

[[record]]
chemical_smiles = "O=C1c2cc(F)ccc2-n2c1nc1ccc(N3CCCCC3)cc1c2=O"
result_value = 26.8

[[record]]
chemical_smiles = "CN1CCN(c2ccc3nc4n(c(=O)c3c2)-c2ccccc2C4=O)CC1"
result_value = 48.7

[[record]]
chemical_smiles = "O=C1c2cc(F)ccc2-n2c1nc1ccc(N3CCNCC3)cc1c2=O"
result_value = 36.9


---

Molecular target: Indoleamine 2,3-dioxygenase 1 (Homo sapiens)
Sequence (P14902 whole entry): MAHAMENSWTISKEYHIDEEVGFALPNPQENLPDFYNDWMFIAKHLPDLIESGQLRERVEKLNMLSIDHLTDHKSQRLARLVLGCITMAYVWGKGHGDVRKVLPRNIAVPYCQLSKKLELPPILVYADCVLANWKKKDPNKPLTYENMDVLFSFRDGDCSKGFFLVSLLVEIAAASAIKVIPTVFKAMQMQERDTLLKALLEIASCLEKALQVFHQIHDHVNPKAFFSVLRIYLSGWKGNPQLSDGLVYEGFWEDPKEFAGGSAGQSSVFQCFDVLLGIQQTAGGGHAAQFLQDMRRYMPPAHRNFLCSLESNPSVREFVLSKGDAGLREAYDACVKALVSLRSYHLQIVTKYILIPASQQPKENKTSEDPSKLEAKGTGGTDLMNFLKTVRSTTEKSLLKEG
Experiment: Noncompetitive inhibition of recombinant human IDO1 expressed in Escherichia coli BL21 cells assessed inhibition constant using varying concentration of L-tryptophan as substrate by Dixon plot analysis
Settings: read-out: Ki
OUTCOME_MEASURE: Ki

[[record]]
chemical_smiles = "CN1CCN(c2ccc3nc4n(c(=O)c3c2)-c2ccc(F)cc2C4=O)CC1"
result_value = "6.92 µM"


The origin of these recorded values is ChEMBL document CHEMBL4354812.
